- Test System: MAP2K6 (Homo sapiens (Human))
- Sequence (P52564 whole entry): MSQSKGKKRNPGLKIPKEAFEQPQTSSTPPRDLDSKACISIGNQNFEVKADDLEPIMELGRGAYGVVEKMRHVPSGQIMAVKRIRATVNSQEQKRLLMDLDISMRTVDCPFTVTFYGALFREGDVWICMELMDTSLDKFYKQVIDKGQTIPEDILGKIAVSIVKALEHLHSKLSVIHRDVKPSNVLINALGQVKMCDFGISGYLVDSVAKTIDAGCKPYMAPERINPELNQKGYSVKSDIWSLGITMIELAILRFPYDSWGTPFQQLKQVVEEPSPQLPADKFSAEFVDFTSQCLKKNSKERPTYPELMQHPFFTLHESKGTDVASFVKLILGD
- Test Description: KiNativ assay
- Type: binding
- Protocol Conditions: H929 live cell, read-out: inhibition (10 μM)
Measurement Label: inhibition at 10 µM (%)

{"columns": ["Structure", "Measurement Label", "Reading"],
 "data": [
  ["Nc1ncc(-c2ccc(NS(=O)(=O)C3CC3)cc2OC2CCCCC2)cc1-c1ccc2c(c1)CCNC2=O", "inhibition at 10 µM", -15],
  ["Nc1ncc(-c2ccc(NS(=O)(=O)C3CC3)cc2F)cc1-c1ccc2c(c1)CCNC2=O", "inhibition at 10 µM", -3.5],
  ["Nc1ncc(-c2cccc3ncsc23)cc1-c1ccc2c(c1)CCNC2=O", "inhibition at 10 µM", 4.3],
  ["Nc1ncc(-c2cccc([N+](=O)[O-])c2F)cc1-c1ccc2c(c1)CCNC2=O", "inhibition at 10 µM", 6.8],
  ["COc1cc(NS(=O)(=O)C2CC2)ccc1-c1cnc(N)c(-c2ccc3c(c2)CCNC3=O)c1", "inhibition at 10 µM", 10.9],
  ["CN(C1CC1)S(=O)(=O)c1ccc(-c2cnc(N)c(-c3ccc4c(c3)CCNC4=O)c2)c(F)c1", "inhibition at 10 µM", 27.6]
]}
